target-or-system: T1, Human EphA2 (Ecto) (Human, UniProt P29317 24-537)
T1 construct: extracellular domain
T1 sequence (P29317 24-537): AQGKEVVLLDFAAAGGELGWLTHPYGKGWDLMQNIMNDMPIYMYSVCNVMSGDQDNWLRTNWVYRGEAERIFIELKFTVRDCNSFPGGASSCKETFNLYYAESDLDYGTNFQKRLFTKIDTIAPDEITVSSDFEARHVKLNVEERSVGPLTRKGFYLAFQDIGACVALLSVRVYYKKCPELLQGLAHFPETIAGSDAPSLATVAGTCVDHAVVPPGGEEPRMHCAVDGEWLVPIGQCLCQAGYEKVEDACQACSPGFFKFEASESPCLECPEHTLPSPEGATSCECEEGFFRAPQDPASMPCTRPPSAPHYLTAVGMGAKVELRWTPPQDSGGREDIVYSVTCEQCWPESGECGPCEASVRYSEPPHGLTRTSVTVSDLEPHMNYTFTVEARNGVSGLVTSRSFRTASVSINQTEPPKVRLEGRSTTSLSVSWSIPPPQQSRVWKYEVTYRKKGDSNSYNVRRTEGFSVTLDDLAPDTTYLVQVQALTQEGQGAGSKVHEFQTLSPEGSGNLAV
method: FP competition; competitor Compound 66
pKi: −log10 of the molar value. Numbered stars: 1 amine (or outer) side, 2 acyl side, 3 side chain; on linkers, the order of the positions; unused ones are H or OH. Bridge positions count the residues as written; N and C are the ends. Square brackets hold non-standard residues; d marks the D form. Ends that are not written are not given here. 1Nal = N[C@@H](Cc1cccc2ccccc12)C(=O)O; TBMB = c1c(C[*:1])cc(C[*:3])cc1C[*:2]; Sar = CNCC(=O)O
Kindly return Fulfilled if reported pKi is no lower than 8; return Not fulfilled if it is lower.

binder | group-label
[Sar][Sar]ACP[1Nal]GPFWCPVNRP[dA]C (linker 4-11-18 via TBMB) [Compound 116] | Fulfilled

Now consider a different binder.
-- ask Say whether ACRVSPEYCPFGPYWCA (linker 2-9-16 via TBMB) [Compound 38] shows pKi of 8 or more.
-- reply Not fulfilled

FYI, the data here is from patent US20200338203A1.
